System: Rattus norvegicus
Test: Antiinflammatory activity against carrageenan-induced paw edema in Charles Foster albino rat at 50 mg/kg, po administered 30 mins before carrageenan challenge measured after 1 to 3 hrs
Format: functional
Could you mark each record True if its Activity falls strictly under 20%, and False if it equals or exceeds it?

Query block: Determine whether this compound shows Activity lower than 20% (ties excluded): O=C(/N=c1\scc(-c2ccccc2)n1-c1ccccc1[N+](=O)[O-])c1cc(=O)[nH]c(=O)[nH]1
Result block: False

Query block: Is it true that Activity reported for CC(=O)c1ccc(-n2c(-c3ccccc3)cs/c2=N\C(=O)c2cc(=O)[nH]c(=O)[nH]2)cc1 is less than 20%?
Result block: True

Query block: I'd appreciate it if you could check whether N=C(/N=c1\scc(-c2ccccc2)n1-c1ccc([N+](=O)[O-])cc1)c1ccccn1 has Activity smaller than 20%.
Result block: False

Query block: For CC(C)Cc1ccc(C(C)C(=O)O)cc1 (stereo not given) , is the recorded Activity below the cut-off of 20%?
Result block: False

Query block: # check: Activity < 20% for COc1ccc(-n2c(-c3ccccc3)cs/c2=N\C(=O)c2cc(=O)[nH]c(=O)[nH]2)cc1
Result block: True

Query block: Is it true that Activity reported for O=C(CC1NC(=O)NC1=O)/N=c1\scc(-c2ccccc2)n1-c1ccccc1[N+](=O)[O-] (stereo not given) is less than 20%?
Result block: True

Query block: Strictly below 20%: is that where Activity of Cc1ccccc1-n1c(-c2ccccc2)cs/c1=N\C(=N)c1ccccn1 sits?
Result block: True

Query block: Determine if CCOc1ccc(-c2cs/c(=N\C(=N)c3ccccn3)n2-c2ccccc2)cc1 shows Activity strictly lower than 20%.
Result block: True

Query block: Is Activity of CC(=O)Oc1ccccc1C(=O)O strictly below 20%?
Result block: False
